Tested on: acetylcholine-induced abdominal constriction
Assay: acetylcholine-induced abdominal constriction test (Ach)
Assay type: in vivo, mice
Details: dose 75, s.c.

- COMPOUND: "CC(CN1CCCCC1CC1CCCCC1)c1cccc(C(O)c2ccccc2)c1 (stereo not shown) [Example 1]"
  Ach percent inhibition of writhing / %: 33
- COMPOUND: "CC(CN1CCCCC1CCC1CCCCC1)c1cccc(C(=O)c2ccccc2)c1 (stereo not shown) [Example 7F]"
  Ach percent inhibition of writhing / %: 33
- COMPOUND: "CC(CN1CCCCC1CC1CCCCC1)c1cccc(C(=O)c2ccccc2)c1 (stereo not shown) [12, 14]"
  Ach percent inhibition of writhing / %: 27
- COMPOUND: "CC(CN1CCCCC1C1CCCCC1)c1cccc(C(=O)c2ccccc2)c1 (stereo not shown) [Example 7E]"
  Ach percent inhibition of writhing / %: 93

###

System: carrageenin-induced foot edema
Assay: inhibition of carrageenin-induced foot edema test (C.E.)
Type: in vivo
Details: oral, dose 0.08 millimoles/kg; read-out: C.E. percent inhibition
Procedure: Anti-inflammatory activity was determined using (1) the inhibition of carrageenin-induced foot edema test essentially described by Winter et al., Proc. Soc. Exp. Biol. and Med. 111, 554 (1962) as modified by Van Arman et al., J. Pharmacol. Exptl. Therap. 150, 328 (1965) and (2) a modification of the inhibition of adjuvant-induced arthritis test described by Pierson, J. Chronic Diseases 16, 863 (1963) and Glenn et al., Am. J. Vet. Res. 26, 1180 (1965). […]
Where a name gives a salt, the structure may show the parent alone.

- COMPOUND: "CN(C)CCCNCCc1cccc(C(=O)c2ccccc2)c1"
  TGT: "carrageenin-induced foot edema"
  inhibition in vivo at 80 µmol/kg / %: 36
- COMPOUND: "CC(CN1CCOCC1)c1cccc(C(N)c2ccccc2)c1 (stereo not shown) [Example 16C, dihydrochloride]"
  TGT: "carrageenin-induced foot edema"
  inhibition in vivo at 80 µmol/kg / %: 49
- COMPOUND: "CC(C)(CN1CCOCC1)c1ccc(C(=O)c2ccccc2)cc1.Cl [Example 24K, hydrochloride]"
  TGT: "carrageenin-induced foot edema"
  inhibition in vivo at 80 µmol/kg / %: 19
- COMPOUND: "Cc1ccc(C(=O)c2cccc(C(C)CN3CCCCC3CC3CCCCC3)c2)cc1 (stereo not shown)"
  TGT: "carrageenin-induced foot edema"
  inhibition in vivo at 80 µmol/kg / %: 58
- COMPOUND: "Cc1ccc(C(O)c2cccc(C(C)CN3CCCCC3CC3CCCCC3)c2)cc1 (stereo not shown)"
  TGT: "carrageenin-induced foot edema"
  inhibition in vivo at 80 µmol/kg / %: 18
- COMPOUND: "CC(CN1CCCCC1CC1CCCCC1)c1cccc(C(=O)c2ccccc2)c1 (stereo not shown)"
  TGT: "carrageenin-induced foot edema"
  inhibition in vivo at 80 µmol/kg / %: 51
- COMPOUND: "Cc1cccc(C(=O)c2cccc(C(C)CN3CCCCC3CC3CCCCC3)c2)c1 (stereo not shown)"
  TGT: "carrageenin-induced foot edema"
  inhibition in vivo at 80 µmol/kg / %: 21
- COMPOUND: "CC(CN1CCNCC1)c1cccc(C(=O)c2ccccc2)c1.Cl.Cl (stereo not shown) [Example 24G, dihydrochloride]"
  TGT: "carrageenin-induced foot edema"
  inhibition in vivo at 80 µmol/kg / %: 32
- COMPOUND: "CC(CN1CCCCC1CCC1CCCCC1)c1cccc(C(=O)c2ccccc2)c1 (stereo not shown)"
  TGT: "carrageenin-induced foot edema"
  inhibition in vivo at 80 µmol/kg / %: 33
- COMPOUND: "CC(CN1CCCCC1C1CCCCC1)c1cccc(C(=O)c2ccccc2)c1 (stereo not shown)"
  TGT: "carrageenin-induced foot edema"
  inhibition in vivo at 80 µmol/kg / %: 33
- COMPOUND: "ON=C(c1ccccc1)c1cccc(CCN2CCOCC2)c1 [Example 15A]"
  TGT: "carrageenin-induced foot edema"
  inhibition in vivo at 80 µmol/kg / %: 27
- COMPOUND: "O=C(c1ccccc1)c1cccc(CCN2CCCCC2CC2CCCCC2)c1 (stereo not shown) [Example 20A]"
  TGT: "carrageenin-induced foot edema"
  inhibition in vivo at 80 µmol/kg / %: 46
- COMPOUND: "Cc1ccccc1C(=O)c1cccc(C(C)CN2CCCCC2CC2CCCCC2)c1 (stereo not shown)"
  TGT: "carrageenin-induced foot edema"
  inhibition in vivo at 80 µmol/kg / %: 33
- COMPOUND: "NC(c1ccccc1)c1cccc(CCN2CCOCC2)c1 (stereo not shown) [Example 16A, dihydrochloride]"
  TGT: "carrageenin-induced foot edema"
  inhibition in vivo at 80 µmol/kg / %: 27
- COMPOUND: "CN(C)C(c1ccccc1)c1cccc(CCN2CCOCC2)c1 (stereo not shown)"
  TGT: "carrageenin-induced foot edema"
  inhibition in vivo at 80 µmol/kg / %: 29
- COMPOUND: "CC(CN1CCCCC1CC1CCCCC1)c1cccc(Cc2ccccc2)c1 (stereo not shown)"
  TGT: "carrageenin-induced foot edema"
  inhibition in vivo at 80 µmol/kg / %: 60
- COMPOUND: "COc1ccc(C(O)c2cccc(C(C)CN3CCCCC3CC3CCCCC3)c2)cc1 (stereo not shown)"
  TGT: "carrageenin-induced foot edema"
  inhibition in vivo at 80 µmol/kg / %: 35
- COMPOUND: "CC(CN1CCC2(CC1)OCCO2)c1ccc(C(=O)c2ccccc2)cc1.Cl (stereo not shown) [Example 24B, hydrochloride]"
  TGT: "carrageenin-induced foot edema"
  inhibition in vivo at 80 µmol/kg / %: 38
- COMPOUND: "CC(c1cccc(C(=O)c2ccccc2)c1)N1CCOCC1 (stereo not shown) [Example 21, 4-[1-(3-benzoylphenyl)ethyl]morpholine]"
  TGT: "carrageenin-induced foot edema"
  inhibition in vivo at 80 µmol/kg / %: 32
- COMPOUND: "CC(CN1CCCCC1CC1CCCCC1)c1cccc(C(O)c2ccccc2)c1 (stereo not shown)"
  TGT: "carrageenin-induced foot edema"
  inhibition in vivo at 80 µmol/kg / %: 60
- COMPOUND: "O=C(c1ccccc1)c1cccc(CCN2CCOCC2)c1 [Example 1C, hydrochloride monohydrate]"
  TGT: "carrageenin-induced foot edema"
  inhibition in vivo at 80 µmol/kg / %: 40
- COMPOUND: "CC1CCCC(C)N1CCc1ccc(O)c(C(=O)c2ccccc2)c1 (stereo not shown) [Example 19, hydrochloride]"
  TGT: "carrageenin-induced foot edema"
  inhibition in vivo at 80 µmol/kg / %: 0
- COMPOUND: "CC(C)(CN1CCC2(CC1)OCCO2)c1cccc(C(=O)c2ccccc2)c1.Cl [Example 24J, hydrochloride]"
  TGT: "carrageenin-induced foot edema"
  inhibition in vivo at 80 µmol/kg / %: 6
- COMPOUND: "NC(c1ccccc1)c1cccc(CN2CCOCC2)c1 (stereo not shown) [Example 16B, dihydrochloride monohydrate]"
  TGT: "carrageenin-induced foot edema"
  inhibition in vivo at 80 µmol/kg / %: 0
- COMPOUND: "CC(CN1CCOCC1)c1cccc(C(=O)c2ccccc2)c1.Cl.O (stereo not shown) [7H (HCl), hydrochloride monohydrate]"
  TGT: "carrageenin-induced foot edema"
  inhibition in vivo at 80 µmol/kg / %: 68
- COMPOUND: "CC(C)(CN1CCOCC1)c1cccc(C(=O)c2ccccc2)c1.Cl [Example 24H, hydrochloride]"
  TGT: "carrageenin-induced foot edema"
  inhibition in vivo at 80 µmol/kg / %: 0
- COMPOUND: "CC(CN1CCCCC1CC1CCCCC1)c1cccc(C(=O)c2cccc(Cl)c2)c1 (stereo not shown) [Example 20B]"
  TGT: "carrageenin-induced foot edema"
  inhibition in vivo at 80 µmol/kg / %: 22
- COMPOUND: "CC(C)(CN1CCC2(CC1)OCCO2)c1ccc(C(=O)c2ccccc2)cc1.Cl [Example 24L, hydrochloride]"
  TGT: "carrageenin-induced foot edema"
  inhibition in vivo at 80 µmol/kg / %: 46
- COMPOUND: "CC(CN1CCCC1CC1CCCCC1)c1cccc(C(=O)c2ccccc2)c1 (stereo not shown)"
  TGT: "carrageenin-induced foot edema"
  inhibition in vivo at 80 µmol/kg / %: 45
- COMPOUND: "CC1CCCC(C)N1CCc1cccc(C(O)c2ccccc2)c1 (stereo not shown)"
  TGT: "carrageenin-induced foot edema"
  inhibition in vivo at 80 µmol/kg / %: 13
- COMPOUND: "CC(CN1CCCCC1CCCC1CCCCC1)c1cccc(C(=O)c2ccccc2)c1 (stereo not shown)"
  TGT: "carrageenin-induced foot edema"
  inhibition in vivo at 80 µmol/kg / %: 37
- COMPOUND: "O=C(c1ccccc1)c1cccc(CN2CCOCC2)c1 [Ref., 4[(3-benzoylphenyl)methyl]morpholine, reference compound]"
  TGT: "carrageenin-induced foot edema"
  inhibition in vivo at 80 µmol/kg / %: 0
- COMPOUND: "CC(CN1CCCCC1CC1CCCCC1)c1cccc(C(O)c2cccc(Cl)c2)c1 (stereo not shown)"
  TGT: "carrageenin-induced foot edema"
  inhibition in vivo at 80 µmol/kg / %: 34
- COMPOUND: "CC(CN1CCOCC1)c1ccc(C(=O)c2ccccc2)cc1 (stereo not shown) [Example 24A, hydrochloride]"
  TGT: "carrageenin-induced foot edema"
  inhibition in vivo at 80 µmol/kg / %: 44

Data origin: patent US4417052A
